Assay: Selectivity index, ratio of CC50 for cytotoxicity against human MT4 cells to EC50 for antiviral activity against HIV1 IIIB infected in human MT4 cells
Type: toxicity, cell-based
Conditions: read-out: Ratio CC50/EC50
measurement_name: selectivity ratio

[in] Entry under review: `COc1ccc(N(C)C(=O)[C@H](Cc2ccccc2)NC(=O)CN2CCN(C(=O)Cc3c[nH]c4ccc(OC)cc34)CC2=O)cc1` . Reported selectivity ratio?
[out] 7.15

[in] Entry under review: `COc1ccc(N(C)C(=O)[C@H](Cc2cc(F)cc(F)c2)NC(=O)CN2CCN(S(=O)(=O)c3ccc(N)cc3)CC2)cc1` . Reported selectivity ratio?
[out] 977

[in] Entry under review: `COc1ccc(N(C)C(=O)[C@H](Cc2ccccc2)NC(=O)Cn2ccc(N)cc2=O)cc1` . Reported selectivity ratio?
[out] 8.98

[in] Entry under review: `COc1ccc(N(C)C(=O)[C@H](Cc2cc(F)cc(F)c2)NC(=O)CN(Cc2ccc(F)cc2)C(=O)Cc2c[nH]c3ccc(Br)cc23)cc1` . Reported selectivity ratio?
[out] 6

----------
Experiment: Selectivity index, ratio of CC50 for cytotoxicity against human MT4 cells to EC50 for antiviral activity against HIV2 ROD infected in human MT4 cells
Format: toxicity, cell-based
Details: read-out: Ratio CC50/EC50
Consider the following compounds; for each one, report its selectivity ratio.
// return just the number, without any unit appended

[in] Entry under review: `COc1ccc(N(C)C(=O)[C@H](Cc2cc(F)cc(F)c2)NC(=O)CN2CCN(S(=O)(=O)c3ccc(N)cc3)CC2)cc1` . Reported selectivity ratio?
[out] 2340

[in] Entry under review: `COc1ccc(N(C)C(=O)[C@H](Cc2ccccc2)NC(=O)Cn2ccc(NC(=O)c3ccc(F)cc3)cc2=O)cc1` . Reported selectivity ratio?
[out] 2.15

[in] Entry under review: `COc1ccc(-n2c(SCC(F)F)nnc2[C@H](Cc2ccccc2)NC(=O)Cc2c(C)[nH]c3ccccc23)cc1` . Reported selectivity ratio?
[out] 3

[in] Entry under review: `COc1ccc(N(C)C(=O)[C@H](Cc2cc(F)cc(F)c2)NC(=O)CN2CCN(C(=O)c3ccc(NC(=O)C(F)(F)F)cc3)CC2=O)cc1` . Reported selectivity ratio?
[out] 9.09

[in] Entry under review: `COc1ccc(N(C)C(=O)[C@H](Cc2cc(F)cc(F)c2)NC(=O)CN2CCN(C(=O)Cc3c[nH]c4ccccc34)CC2=O)cc1` . Reported selectivity ratio?
[out] 3.28

[in] Entry under review: `COc1ccc(N(C)C(=O)[C@H](Cc2cc(F)cc(F)c2)NC(=O)CN2CCN(S(=O)(=O)c3ccc([N+](=O)[O-])cc3)CC2)cc1` . Reported selectivity ratio?
[out] 30.9

[in] Entry under review: `COc1ccc(N(C)C(=O)[C@H](Cc2cc(F)cc(F)c2)NC(=O)CN2CCN(S(=O)(=O)c3ccc(Br)cc3)CC2)cc1` . Reported selectivity ratio?
[out] 37.8

[in] Entry under review: `COc1ccc(N(C)C(=O)[C@H](Cc2cc(F)cc(F)c2)NC(=O)CN2CCN(S(=O)(=O)c3cccc(N)c3)CC2)cc1` . Reported selectivity ratio?
[out] 987

[in] Entry under review: `COc1ccc(N(C)C(=O)[C@H](Cc2ccccc2)NC(=O)Cn2ccc(NC(=O)c3ccccc3F)cc2=O)cc1` . Reported selectivity ratio?
[out] 10.3

[in] Entry under review: `COc1ccc(N(C)C(=O)[C@H](Cc2cc(F)cc(F)c2)NC(=O)CN(CC2CCCCC2)C(=O)Cn2nc(C(F)(F)F)cc2C)cc1` . Reported selectivity ratio?
[out] 2

[in] Entry under review: `COc1ccc(N(C)C(=O)[C@H](Cc2cc(F)cc(F)c2)NC(=O)CN(Cc2ccc(F)cc2)C(=O)Cc2ccc(B3OC(C)(C)C(C)(C)O3)cc2)cc1` . Reported selectivity ratio?
[out] 5

----------
Consider the following compounds; for each one, report its selectivity ratio.
Assay: Selectivity index, ratio of CC50 for cytotoxicity against human MT4 cells to EC50 for antiviral activity against HIV2 ROD infected in human MT4 cells
Type: toxicity, cell-based
Settings: read-out: Ratio CC50/EC50

[in] Entry under review: `COc1ccc(-n2c(SCc3ncccn3)nnc2[C@H](Cc2ccccc2)NC(=O)Cc2c(C)[nH]c3ccccc23)cc1` . Reported selectivity ratio?
[out] 14

[in] Entry under review: `COc1ccc(N(C)C(=O)[C@H](Cc2ccccc2)NC(=O)Cn2ccc(N)cc2=O)cc1` . Reported selectivity ratio?
[out] 13.2

[in] Entry under review: `Nc1ccc(S(=O)(=O)N2CCN(CC(=O)N[C@@H](Cc3ccccc3)c3nc4ccccc4c(=O)n3-c3ccc(S(=O)(=O)N4CCOCC4)cc3)CC2)cc1` . Reported selectivity ratio?
[out] > 1560

[in] Entry under review: `COc1ccc(N(C)C(=O)[C@H](Cc2cc(F)cc(F)c2)NC(=O)CN2CCN(S(=O)(=O)c3ccccc3N)CC2)cc1` . Reported selectivity ratio?
[out] 454

[in] Entry under review: `COc1ccc(-n2c([C@H](Cc3ccccc3)NC(=O)CN3CCN(S(=O)(=O)c4ccc(N)cc4)CC3)nc3cc(Cl)ccc3c2=O)cc1` . Reported selectivity ratio?
[out] > 1740

[in] Entry under review: `COc1ccc(N(C)C(=O)[C@H](Cc2ccccc2)NC(=O)CN2CCN(C(=O)Cc3c[nH]c4ccccc34)CC2=O)cc1` . Reported selectivity ratio?
[out] 23

[in] Entry under review: `COc1ccc(N(C)C(=O)[C@H](Cc2ccccc2)NC(=O)CN2CCN(C(=O)Cc3c(C)[nH]c4ccccc34)CC2=O)cc1` . Reported selectivity ratio?
[out] 13.9

[in] Entry under review: `COC(=O)CCSc1nnc([C@H](Cc2ccccc2)NC(=O)Cc2c(C)[nH]c3ccccc23)n1-c1ccc(OC)cc1` . Reported selectivity ratio?
[out] > 11

[in] Entry under review: `COc1ccc(N(C)C(=O)[C@H](Cc2ccccc2)NC(=O)CN2CCN(C(=O)c3ccc(NC(C)=O)cc3)CC2=O)cc1` . Reported selectivity ratio?
[out] > 1.16

[in] Entry under review: `COc1ccc(N(C)C(=O)[C@H](Cc2cc(F)cc(F)c2)NC(=O)CN2CCN(S(=O)(=O)c3ccccc3)CC2)cc1` . Reported selectivity ratio?
[out] 1140

[in] Entry under review: `COc1ccc(-n2c([C@H](Cc3ccccc3)NC(=O)CN3CCN(S(=O)(=O)c4ccc([N+](=O)[O-])cc4)CC3)nc3cc(F)ccc3c2=O)cc1` . Reported selectivity ratio?
[out] > 312

[in] Entry under review: `O=C(CN1CCN(S(=O)(=O)c2ccc([N+](=O)[O-])cc2)CC1)N[C@@H](Cc1ccccc1)c1nc2ccccc2c(=O)n1-c1ccc(S(=O)(=O)N2CCS(=O)(=O)CC2)cc1` . Reported selectivity ratio?
[out] > 198

[in] Entry under review: `COc1ccc(-n2c([C@H](Cc3cc(F)cc(F)c3)NC(=O)CN3CCN(S(=O)(=O)c4ccc([N+](=O)[O-])cc4)CC3)nc3cc(F)ccc3c2=O)cc1` . Reported selectivity ratio?
[out] > 481

[in] Entry under review: `COc1ccc(N(C)C(=O)[C@H](Cc2cc(F)cc(F)c2)NC(=O)CN2CCN(S(=O)(=O)c3ccc(Cl)cc3)CC2)cc1` . Reported selectivity ratio?
[out] 20.6

[in] Entry under review: `COc1ccc(N(C)C(=O)[C@H](Cc2cc(F)cc(F)c2)NC(=O)CN2CCN(S(=O)(=O)c3cccc(F)c3)CC2)cc1` . Reported selectivity ratio?
[out] > 1690

----------
Assay: Selectivity index, ratio of CC50 for cytotoxicity against human MT4 cells to EC50 for antiviral activity against HIV1 IIIB infected in human MT4 cells
Format: toxicity, cell-based
Details: read-out: Ratio CC50/EC50
Consider the following molecules; for each one, report its selectivity ratio.
// return just the number, without any unit appended

[in] Entry under review: `COc1ccc(N(C)C(=O)[C@H](Cc2cc(F)cc(F)c2)NC(=O)CN(Cc2ccc(C#N)cc2)C(=O)Cc2c[nH]c3ccc(F)cc23)cc1` . Reported selectivity ratio?
[out] 9

[in] Entry under review: `COc1ccc(N(C)C(=O)[C@H](Cc2ccccc2)NC(=O)CN2CCN(C(=O)Cc3c[nH]c4ccccc34)CC2=O)cc1` . Reported selectivity ratio?
[out] 7.51

[in] Entry under review: `COc1ccc(N(C)C(=O)[C@H](Cc2cc(F)cc(F)c2)NC(=O)CN2CCN(S(=O)(=O)c3ccc(F)cc3)CC2)cc1` . Reported selectivity ratio?
[out] 24.3

----------
Consider the following compounds; for each one, report its selectivity ratio.
Experiment: Selectivity index, ratio of CC50 for cytotoxicity against human MT4 cells to EC50 for antiviral activity against HIV1 IIIB infected in human MT4 cells
Type: toxicity, cell-based
Details: read-out: Ratio CC50/EC50
// return just the number, without any unit appended

[in] Entry under review: `COc1ccc(-n2c(SCc3ccc(B(O)O)cc3)nnc2[C@H](Cc2ccccc2)NC(=O)Cc2c(C)[nH]c3ccccc23)cc1` . Reported selectivity ratio?
[out] 8

[in] Entry under review: `COc1ccc(N(C)C(=O)[C@H](Cc2cc(F)cc(F)c2)NC(=O)CN2CCN(S(=O)(=O)c3cccc([N+](=O)[O-])c3)CC2)cc1` . Reported selectivity ratio?
[out] 56.3

[in] Entry under review: `COc1ccc(-n2c(SCc3ccncc3)nnc2[C@H](Cc2ccccc2)NC(=O)Cc2c(C)[nH]c3ccccc23)cc1` . Reported selectivity ratio?
[out] 9

[in] Entry under review: `COc1ccc(N(C)C(=O)[C@H](Cc2cc(F)cc(F)c2)NC(=O)CN2CCN(C(=O)c3ccc(NC(=O)C(F)(F)F)cc3)CC2=O)cc1` . Reported selectivity ratio?
[out] 10.9

[in] Entry under review: `COc1ccc(N(C)C(=O)[C@H](Cc2cc(F)cc(F)c2)NC(=O)CN(Cc2ccccc2)C(=O)Cc2c(C)[nH]c3ccccc23)cc1` . Reported selectivity ratio?
[out] 10

[in] Entry under review: `COc1ccc(N(C)C(=O)[C@H](Cc2ccccc2)NC(=O)Cn2ccc(NC(=O)c3ccccc3)cc2=O)cc1` . Reported selectivity ratio?
[out] 5.15
